# binding signal listing for each entry below
Biological target: T1, UNK ZnF1-6 (called full-length) (human, UniProt Q9C0B0 30-357)
T1 sequence: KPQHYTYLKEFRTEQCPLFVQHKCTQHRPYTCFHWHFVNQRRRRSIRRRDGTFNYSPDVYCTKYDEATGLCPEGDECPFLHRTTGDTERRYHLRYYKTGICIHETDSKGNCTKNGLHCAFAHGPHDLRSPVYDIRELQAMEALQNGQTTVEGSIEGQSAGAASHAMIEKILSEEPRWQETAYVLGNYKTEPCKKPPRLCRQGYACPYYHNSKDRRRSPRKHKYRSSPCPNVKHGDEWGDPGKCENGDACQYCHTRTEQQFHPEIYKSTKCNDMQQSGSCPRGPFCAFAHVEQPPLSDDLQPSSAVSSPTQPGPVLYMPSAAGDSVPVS
Assay: nsRBNS (natural sequence RNA bind-n-seq); RBNS binding buffer (assumed for nsRBNS): 25 mM Tris pH 7.5, 150 mM KCl, 3 mM MgCl2, 0.01% Triton X-100, 500 ug/ml BSA, 20 U/ml SUPERase-In, 4 C; UNK is unkempt and MSI1 is Musashi-1; names of the RNAs are library labels; protein concentration not given here; high values mean tight binding
Whole data set: some 5,800 sequences, median “enrichment r” near 0.68, cut for the highest 2% near 11. This excerpt belongs to a sample that is enriched for the highest values.
Give the value in enrichment R but do not write enrichment R after it.

Below, 2 binders whose answers are already recorded.
- Binder: "chr13:110149936:110150037:-|3pUTR|ENSG00000187498|msi1|FALSE|unique (ssRNA) RNA: GGGAGUUCUACAGUCCGACGAUCUUCUUGUAUUAUAAUUAAUUUUCUACCCCCAGAGAUAAAUGUUUGUUUAUAUCACUGUCUAGCUGUUUCAAAAUUUAGGUCCCUUGGUCUGUACAAAUAAUAGCAAUGUAAAAAUGGUUUCAACAGAGGAUUGAGCAUCA"
  binding signal / enrichment R: 119
- Binder: "chr12:98549999:98550103:+|3pUTR|ENSG00000120802|unk|FALSE|unique (ssRNA) RNA: GGGAGUUCUACAGUCCGACGAUCUGUUUCCCAUACUGUUUUCAGCCUUUUGUUUAUAAUUAGAAAUUGUGAGAAGCUUCAUUUAGUGUUUAAAAAUGUGGGGAGAUAAAUCAGACUUAACAUGUAUGUAAGAUCAAUUCACUUCAACAGAGGAUUGAGCAUCA"
  binding signal / enrichment R: 6.12

binder chr6:57184343:57184440:+|3pUTR|ENSG00000112208|msi1_unk|FALSE|overlapping (ssRNA) RNA: GGGAGUUCUACAGUCCGACGAUCUCUUCAGUUUUGUGAAUAACAAAACUAGCAAUAUUUUAAUUAUCUAUCUAGAGAUUUUUUAGAUUGAAUUCUUGUCUUGUACUAGGAUCUAGCAUAUUUCACUAUUCUGUGGAUGAAUACCAACAGAGGAUUGAGCAUCA , binding signal observed: 6.31

Values from paper PMC12136788
